Tested on: UACC-62 melanoma
Assay: NCI tumour cell line growth inhibition, 48 h

molecule | TGI
Cc1ccc(S(=O)(=O)OC2CCN(C)CC2)cc1 | > 100 µM
COc1cc2c(cc1O)CC[C@@H]1[C@@H]2CC[C@]2(C)[C@@H](NCCN(C)C)CC[C@@H]12 | 0.274 µM
Cc1ccccc1C(=O)c1c(O)c2c(c(O)c1Br)CCCC2 | 29 µM
CC[C@]12CCCN3CCc4c(n(c5ccccc45)C(=O)C1)[C@@H]32 | > 100 µM
CC1(C)N=C(N)N=C(N)N1c1cccc(CCCCc2cccc(S(=O)(=O)F)c2)c1 | 18 µM
COc1ccc(-c2cc(-c3cc(Cl)ccc3Cl)nc3n[nH]c(N)c23)cc1 | > 100 µM
CC1(C)[C@H](C(=O)O)N2C(=O)[C@@H](NS(=O)(=O)c3ccc([N+](=O)[O-])cc3)[C@H]2S1(=O)=O | > 100 µM
CS(=O)(=O)c1ccc(/C=N/NC(N)=S)cc1 | > 100 µM
COc1ccc(C2CC(=O)c3c(O)cc(O)cc3O2)cc1O (configuration not stated) | > 100 µM
N#CN=C(N)c1sc2nc3c(c(-c4ccc(Br)cc4)c2c1N)CCCC3 | 51.3 µM
O=C(NC1CCN(Cc2ccccc2)CC1)c1cc(-c2ccncc2)nc2ccc(Cl)cc12 | > 85.3 µM
CC1CC(C2=CC=CCS2)=Nc2ccccc2S1 (configuration not stated) | > 100 µM

* * *

Tested on: RPMI-8226 leukemia
Test: NCI tumour cell line growth inhibition, 48 h; in the data active means GI50 below about 0.43 µM; inactive means the rest
Possible outcomes: Y for active, N for inactive

entry smiles | assigned category
COc1cc(NS(C)(=O)=O)ccc1Nc1c2ccc([N+](=O)[O-])cc2nc2c(C)cccc12 | Y
Cc1ccc([N+](=O)[O-])cc1NC(=O)Nc1cccc(F)c1 | N
COc1ccc2[nH]c(=O)c3c4ccccc4cn3c2c1 | Y
Cc1cccc(NC(=O)CCc2ccc(N3C(N)=NC(N)=NC3(C)C)cc2)c1 | N
CC(=O)N[C@@H](Cc1ccc(OP(=O)(O)O)cc1)C(=O)N[C@H]1CCC(=O)N2CCC[C@@H](C(=O)NCc3ccc(Cl)cc3)N2C1=O | N
CCCCC[C@H](O)/C=C/[C@@H]1[C@@H](C/C=C\CCCC(=O)O)[C@@H](O)C[C@H]1O | N
COc1ccc2oc(=O)cc(C(c3ccc[nH]3)c3ccc[nH]3)c2c1 | Y
C=CC[n+]1c(/C=C/C=C2\N(C)c3ccccc3C2(C)C)sc2ccc(OC)cc21 | Y
CC1(C)N=C(N)N=C(N)N1c1cccc(CCCCc2cccc(S(=O)(=O)F)c2)c1 | N

* * *

// reported TGI for each item listed
Tested on: U251 CNS
Assay: NCI tumour cell line growth inhibition, 48 h

compound | target desc | TGI
OC1[C@H]([C@H]2CCCC[C@@H]2O)CCC[C@@H]1[C@@H]1CCCC[C@H]1O (stereo partly specified) | U251 CNS | > 100 µM
Nc1cc2c3c(c1)Oc1cc(N)cc4c1C3c1c(cc(N)cc1O4)O2 | U251 CNS | > 100 µM
O=C1/C(=C/c2ccccc2)CCCC1CN1CCCCC1 (stereo unspecified) | U251 CNS | 27 µM
CS/C(=N\C(=S)N(C)C)N(c1ccccc1)c1nc(=[N+](C)C)ss1 | U251 CNS | 20 µM
CCOC(=O)Nc1cc2nnc(-c3ccccc3)nc2c(N)n1 | U251 CNS | > 100 µM
O=C(NC1CCN(Cc2ccccc2)CC1)c1cc(-c2ccncc2)nc2ccc(Cl)cc12 | U251 CNS | > 71.7 µM
CN(C)CCOc1ccc2[nH]c(C(=O)N3CC(CCl)c4c3cc(N)c3ccccc43)cc2c1 (stereo unspecified) | U251 CNS | 1.1 µM
Nc1ncnc2c1ncn2C1OC(COP(=O)(O)O)C(O)C1O (stereo unspecified) | U251 CNS | > 50 µM
CCSCC1CC(O)(c2ccccc2)C(c2ccccc2)C(c2ccc(Cl)cc2)O1 (stereo unspecified) | U251 CNS | 3.32 µM
CCOc1ccccc1NC(=O)CC1C(=O)Nc2ccccc2S1=O (stereo unspecified) | U251 CNS | > 100 µM
O=P1(O)C=CC2(CCCC2)O1 | U251 CNS | > 100 µM
CO/N=C(\C)c1ccc(Nc2c3ccccc3nc3occc23)cc1 | U251 CNS | 10.9 µM
COc1cc2c(cc1OC)-c1cc3ccccc3c[n+]1CC2 | U251 CNS | > 100 µM
Cc1ccc([N+](=O)[O-])cc1NC(=O)Nc1cccc(F)c1 | U251 CNS | 18.4 µM
O=C(O)C/C(=C\c1ccco1)C(=O)O | U251 CNS | > 100 µM
O=C1OC[C@@H]2[C@@H](O)CCCCCN12 | U251 CNS | > 100 µM
